Origin of values: ChEMBL document CHEMBL3217647

# assay.system: M-phase inducer phosphatase 2 (Homo sapiens, UniProt P30305)
# Sequence (P30305 whole entry): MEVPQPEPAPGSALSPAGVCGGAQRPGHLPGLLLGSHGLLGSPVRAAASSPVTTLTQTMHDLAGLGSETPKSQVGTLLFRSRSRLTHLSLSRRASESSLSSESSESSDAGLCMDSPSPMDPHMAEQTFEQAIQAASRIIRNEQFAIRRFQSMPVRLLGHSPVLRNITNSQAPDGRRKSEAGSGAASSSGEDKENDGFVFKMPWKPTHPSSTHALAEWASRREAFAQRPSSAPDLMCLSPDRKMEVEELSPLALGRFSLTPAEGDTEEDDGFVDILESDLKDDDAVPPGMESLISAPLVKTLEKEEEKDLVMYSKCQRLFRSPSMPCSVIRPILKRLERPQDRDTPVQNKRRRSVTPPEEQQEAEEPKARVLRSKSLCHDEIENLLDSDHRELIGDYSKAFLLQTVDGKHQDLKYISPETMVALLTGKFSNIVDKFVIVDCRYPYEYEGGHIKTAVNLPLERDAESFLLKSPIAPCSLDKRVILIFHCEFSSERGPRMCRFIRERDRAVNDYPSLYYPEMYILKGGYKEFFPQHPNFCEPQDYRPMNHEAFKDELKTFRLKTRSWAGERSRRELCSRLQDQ
# measurement.protocol: Inhibition of Cdc25B (unknown origin) phosphatase activity assessed as fluorescence by BMG plate reader in the presence of 0.005% Tween-20
pIC50: −log10 of the molar value.
Lab note: anything with pIC50 at or over 5 counts as YES; the rest go in NO.

Illustrative cases are given below, each with its answer.
[
  {
    "molecule": "O=C(Nc1nc(-c2ccc(F)cc2)cs1)c1cnccn1",
    "assay.system": "M-phase inducer phosphatase 2 (Homo sapiens, UniProt P30305)",
    "group": "NO"
  },
  {
    "molecule": "Cc1cccc(-c2nc(-c3ccc4c(c3)CCN4S(C)(=O)=O)cs2)c1",
    "assay.system": "M-phase inducer phosphatase 2 (Homo sapiens, UniProt P30305)",
    "group": "NO"
  },
  {
    "molecule": "CCOc1ccc(-c2nn(-c3ccccc3)cc2/C=C2\\SC(=O)N(C)C2=O)cc1Br",
    "assay.system": "M-phase inducer phosphatase 2 (Homo sapiens, UniProt P30305)",
    "group": "YES"
  },
  {
    "molecule": "O=C1C(=O)c2c(C(=O)c3ccccc3)coc2-c2ccccc21",
    "assay.system": "M-phase inducer phosphatase 2 (Homo sapiens, UniProt P30305)",
    "group": "YES"
  },
  {
    "molecule": "O=C(CCC(=O)NC1CCCC1)Nc1nc(-c2cc3ccccc3oc2=O)cs1",
    "assay.system": "M-phase inducer phosphatase 2 (Homo sapiens, UniProt P30305)",
    "group": "YES"
  },
  {
    "molecule": "O=C(/C=C/c1ccc2c(c1)OCO2)Nc1nc(-c2ccc(F)cc2F)cs1",
    "assay.system": "M-phase inducer phosphatase 2 (Homo sapiens, UniProt P30305)",
    "group": "YES"
  }
]

Could you verify whether the entry CCOc1ccc(-c2nc(-c3ccc4c(c3)CC(=O)N4C)cs2)cc1 shows pIC50 of no less than 5?
NO

Record O=S(=O)(Cc1ccco1)Cc1nc(-c2ccc(-c3ccccc3)cc2)cs1 ; criterion: pIC50 no lower than 5. Met?
YES

Could you please find out whether CCOc1ccc(-c2nc(-c3ccc4[nH]c(=O)[nH]c4c3)cs2)cc1 has pIC50 that meets 5 or exceeds it?
NO

Textbook exercise: given the entry O=C(CCC(=O)Nc1nc(-c2cc3ccccc3oc2=O)cs1)NCc1ccc2c(c1)OCO2 , state whether its pIC50 is greater than or equal to 5.
YES

Quick check, pIC50 >= 5? CCOc1ccc(-c2nc(-c3ccc4ccccc4c3)cs2)cc1
NO

Check if pIC50 >= 5 (inclusive). Item: O=C(Nc1cccc(-c2csc(-c3ccccc3)n2)c1)c1cccc(=O)[nH]1
YES

Identify whether the reported pIC50 of the following molecule is 5 or greater: N#Cc1ccc(-c2csc(-c3ccc(-c4csnn4)cc3)n2)cc1
YES

Reported pIC50 at or above 5? COc1ccccc1-c1nc(-c2ccc3c(c2)CCN3S(C)(=O)=O)cs1
NO

Please check the record COc1ccc(-c2nc(-c3ccc4c(c3)CCN4S(C)(=O)=O)cs2)cc1 and state if its pIC50 is at or above 5.
NO

---

# assay.system: M-phase inducer phosphatase 1 (Homo sapiens)
# Sequence (P30304 whole entry): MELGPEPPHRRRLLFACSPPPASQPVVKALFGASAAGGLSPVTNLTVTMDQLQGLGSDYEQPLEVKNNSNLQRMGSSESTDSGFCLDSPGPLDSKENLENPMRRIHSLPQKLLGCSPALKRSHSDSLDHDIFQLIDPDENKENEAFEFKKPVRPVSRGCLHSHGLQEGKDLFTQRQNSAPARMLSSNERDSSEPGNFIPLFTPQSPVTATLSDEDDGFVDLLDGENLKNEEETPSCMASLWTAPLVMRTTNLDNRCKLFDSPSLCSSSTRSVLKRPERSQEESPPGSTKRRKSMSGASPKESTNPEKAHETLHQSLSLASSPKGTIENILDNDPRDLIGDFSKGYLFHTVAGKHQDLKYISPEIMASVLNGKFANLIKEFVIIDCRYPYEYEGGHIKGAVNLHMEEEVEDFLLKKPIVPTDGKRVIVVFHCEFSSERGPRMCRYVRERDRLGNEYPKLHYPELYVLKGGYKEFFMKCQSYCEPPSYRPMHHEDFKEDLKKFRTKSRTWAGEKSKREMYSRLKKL
# measurement.protocol: Inhibition of Cdc25A (unknown origin) phosphatase activity assessed as fluorescence by BMG plate reader in the presence of 0.005% Tween-20
Binary call on IC50 with cut-off 20 µM: strictly below means Condition met, and equality or higher means Condition not met.

[
  {
    "compound": "COc1ccc(-c2nc(C(=O)Nc3ccc[nH]c3=O)cs2)cc1",
    "group": "Condition met"
  },
  {
    "compound": "CCOc1ccc(-c2nc(-c3ccc4ccccc4c3)cs2)cc1",
    "group": "Condition not met"
  },
  {
    "compound": "COc1ccccc1-c1nc(-c2ccc3c(c2)CCN3S(C)(=O)=O)cs1",
    "group": "Condition not met"
  },
  {
    "compound": "CCOc1ccc(-c2nc(-c3ccc4c(c3)CC(=O)N4C)cs2)cc1",
    "group": "Condition not met"
  },
  {
    "compound": "COc1ccc(-c2nc(-c3cnc(N)nc3)cs2)cc1",
    "group": "Condition not met"
  }
]

State whether 20 µM exceeds IC50 recorded for COc1ccc(-c2csc(-c3cccc(NC(=O)C4CC4)c3)n2)cc1 .
Condition not met

Is the reported IC50 for O=C(Nc1cccc(-c2csc(-c3ccccc3)n2)c1)c1ccco1 strictly below 20 µM?
Condition not met

Just wondering, is IC50 of O=S(=O)(Cc1ccco1)Cc1nc(-c2ccc(-c3ccccc3)cc2)cs1 below 20 µM?
Condition met

---

# assay.system: Dual specificity protein phosphatase 3 (Homo sapiens, UniProt P51452)
# Sequence (P51452 whole entry): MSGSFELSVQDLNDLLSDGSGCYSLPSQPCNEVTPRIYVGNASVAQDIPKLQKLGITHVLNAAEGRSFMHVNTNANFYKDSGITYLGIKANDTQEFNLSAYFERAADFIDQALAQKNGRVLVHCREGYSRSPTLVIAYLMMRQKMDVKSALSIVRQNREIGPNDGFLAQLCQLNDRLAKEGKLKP
# measurement.protocol: Inhibition of human His-tagged VHR phosphatase activity assessed as fluorescence by BMG plate reader in the presence of 0.005% Tween-20
reported.endpoint: pIC50
The quantity pIC50 is defined as the negative base-10 logarithm of the molar concentration.

Reference set (4 entries):
[
  {
    "smiles.input": "Cc1cccc(-c2nc(-c3ccc4c(c3)CCN4S(C)(=O)=O)cs2)c1",
    "pIC50": 4.40
  },
  {
    "smiles.input": "O=S(=O)(Cc1ccco1)Cc1nc(-c2ccc(-c3ccccc3)cc2)cs1",
    "pIC50": 4.59
  },
  {
    "smiles.input": "CCOc1ccc(-c2nc(-c3ccc4ccccc4c3)cs2)cc1",
    "pIC50": 4.21
  },
  {
    "smiles.input": "CCOc1ccc(-c2nc(-c3ccc4[nH]c(=O)[nH]c4c3)cs2)cc1",
    "pIC50": 4.70
  }
]

Continue with the next compound.
Dear colleague, I am looking for the recorded pIC50 of the following compound: O=C(/C=C/c1ccc2c(c1)OCO2)Nc1nc(-c2ccc(F)cc2F)cs1
4.18

---

# assay.system: M-phase inducer phosphatase 3 (Homo sapiens, UniProt P30307)
# Sequence (P30307 whole entry): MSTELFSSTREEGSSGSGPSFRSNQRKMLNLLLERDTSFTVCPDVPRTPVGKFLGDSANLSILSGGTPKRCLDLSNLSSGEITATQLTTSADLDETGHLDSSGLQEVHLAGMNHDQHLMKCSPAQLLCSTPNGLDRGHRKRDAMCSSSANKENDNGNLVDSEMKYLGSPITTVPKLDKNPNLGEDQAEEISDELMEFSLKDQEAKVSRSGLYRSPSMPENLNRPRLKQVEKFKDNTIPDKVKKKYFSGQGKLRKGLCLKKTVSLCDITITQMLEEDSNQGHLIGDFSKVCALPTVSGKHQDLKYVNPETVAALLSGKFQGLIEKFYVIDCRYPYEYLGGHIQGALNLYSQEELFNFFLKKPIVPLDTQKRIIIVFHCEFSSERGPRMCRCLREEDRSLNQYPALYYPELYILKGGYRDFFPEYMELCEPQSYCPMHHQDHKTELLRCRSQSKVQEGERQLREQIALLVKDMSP
# measurement.protocol: Inhibition of Cdc25C (unknown origin) phosphatase activity assessed as fluorescence by BMG plate reader in the absence of detergent
Property: IC50; scope: individual compounds

Example results:
[
  {
    "smiles.input": "CCOc1ccc(-c2nc(-c3ccc4c(c3)CC(=O)N4C)cs2)cc1",
    "IC50": "> 100 µM"
  },
  {
    "smiles.input": "CCOc1ccc(-c2nc(-c3ccc4ccccc4c3)cs2)cc1",
    "IC50": "31.5 µM"
  },
  {
    "smiles.input": "CCOc1ccc(-c2nc(-c3ccc4[nH]c(=O)[nH]c4c3)cs2)cc1",
    "IC50": "10.2 µM"
  }
]

In the following, a different compound is considered.
Sample COc1ccccc1-c1nc(-c2ccc3c(c2)CCN3S(C)(=O)=O)cs1 — what was its IC50?
14.2 µM

---

# assay.system: UniProtKB P30307
# measurement.protocol: Inhibition of Cdc25C (unknown origin) phosphatase activity assessed as fluorescence by BMG plate reader in the presence of 0.005% Tween-20
pIC50: −log10 of the molar value.
Listed below: pIC50 values for each entry.

As a guide, the following entries are already answered.
[
  {
    "compound": "COc1ccc(-c2nc(-c3cnc(N)nc3)cs2)cc1",
    "assay.system": "UniProtKB P30307",
    "reported.endpoint": "pIC50",
    "recorded.measurement": "< 4.00"
  },
  {
    "compound": "COc1ccc(-c2nc(-c3cc(C)n(CC4CCCO4)c3C)cs2)cc1 (stereo not drawn)",
    "assay.system": "UniProtKB P30307",
    "reported.endpoint": "pIC50",
    "recorded.measurement": "< 4.00"
  }
]

Read the next record carefully.
Record O=C(Nc1cccc(-c2csc(-c3ccccc3)n2)c1)c1ccco1 : what is its pIC50 with UniProtKB P30307?
< 4.00

---

compounds and their reported pIC50
# assay.system: UniProtKB P30305
# measurement.protocol: Inhibition of Cdc25B (unknown origin) phosphatase activity assessed as fluorescence by BMG plate reader in the presence of 0.005% Tween-20
Expect pIC50 as a plain number equal to -log10 of the molar concentration.

# count of solved cases: 4
[
  {
    "compound": "CCOC(=O)C1=C(C)N=c2s/c(=C\\c3ccc(O)cc3)c(=O)n2C1c1ccc2c(c1)OCO2 (configuration not stated)",
    "assay.system": "UniProtKB P30305",
    "recorded.measurement": 4.89
  },
  {
    "compound": "COc1ccc(-c2nc(-c3cnc(N)nc3)cs2)cc1",
    "assay.system": "UniProtKB P30305",
    "recorded.measurement": 4.71
  },
  {
    "compound": "O=c1[nH]c2cc(S(=O)(=O)Nc3cccc(-c4csc(-c5ccccc5)n4)c3)ccc2o1",
    "assay.system": "UniProtKB P30305",
    "recorded.measurement": 5.46
  },
  {
    "compound": "COc1ccc(-c2nc(-c3cc(C)n(CC4CCCO4)c3C)cs2)cc1 (configuration not stated)",
    "assay.system": "UniProtKB P30305",
    "recorded.measurement": 4.63
  }
]

So what does the record say about pIC50 for COc1ccc(-c2nc(C(=O)Nc3ccc[nH]c3=O)cs2)cc1 ?
5.17
